- System: Fusarium oxysporum
- Assay Text: Antifungal activity against Fusarium oxysporum
- Format: functional
Quantity Kind: MIC (µg/mL)

[[record]]
compound = "CCOC(=O)Cn1ncc2cc([N+](=O)[O-])ccc21"
unit_descriptor = "µg/mL"
result_value = 30

[[record]]
compound = "CN(C)c1ccc(/C=N/NC(=O)Cn2ncc3cc([N+](=O)[O-])ccc32)cc1"
unit_descriptor = "µg/mL"
result_value = 23

[[record]]
compound = "O=C(Cn1ncc2cc([N+](=O)[O-])ccc21)N/N=C/c1ccccc1"
unit_descriptor = "µg/mL"
result_value = 17

[[record]]
compound = "CN(C)c1ccc(C2SCC(=O)N2NC(=O)Cn2ncc3cc([N+](=O)[O-])ccc32)cc1 (centres undefined)"
unit_descriptor = "µg/mL"
result_value = 18

[[record]]
compound = "O=C(Cn1ncc2cc([N+](=O)[O-])ccc21)N/N=C/c1ccccc1O"
unit_descriptor = "µg/mL"
result_value = 15


I = O=C(Cn1ncc2cc([N+](=O)[O-])ccc21)NN1C(=O)CSC1c1cccc([N+](=O)[O-])c1 (centres undefined)
II = Cc1ccc(C2SCC(=O)N2NC(=O)Cn2ncc3cc([N+](=O)[O-])ccc32)cc1 (centres undefined)
Input: Of I and II , whose reported MIC is numerically smaller? Mark your selection by writing its label.
Output: I
(I: 8 µg/mL, II: 20 µg/mL)

* * *

- Test system: Salmonella typhi
- Assay Text: Antibacterial activity against Salmonella typhi at 50 ug/mL
- Applied Conditions: read-out: IZ
Quantity Kind: zone of inhibition at 50 µg/mL (mm)
// units = mm; emit number, no label

[[record]]
compound = "CN[C@@H]1[C@H](O[C@H]2[C@H](O[C@H]3[C@H](O)[C@@H](O)[C@H](N=C(N)N)[C@@H](O)[C@@H]3N=C(N)N)O[C@@H](C)[C@]2(O)C=O)O[C@@H](CO)[C@H](O)[C@H]1O [STREPTOMYCIN]"
quantity_kind = "zone of inhibition at 50 µg/mL"
unit_descriptor = "mm"
result_value = 25

[[record]]
compound = "O=C(Cn1ncc2cc([N+](=O)[O-])ccc21)NN1C(=O)CSC1c1ccccc1 (centres undefined)"
quantity_kind = "zone of inhibition at 50 µg/mL"
unit_descriptor = "mm"
result_value = 14.6

[[record]]
compound = "O=C(Cn1ncc2cc([N+](=O)[O-])ccc21)N/N=C/c1ccc(Cl)cc1"
quantity_kind = "zone of inhibition at 50 µg/mL"
unit_descriptor = "mm"
result_value = 18

[[record]]
compound = "CN(C)c1ccc(C2SCC(=O)N2NC(=O)Cn2ncc3cc([N+](=O)[O-])ccc32)cc1 (centres undefined)"
quantity_kind = "zone of inhibition at 50 µg/mL"
unit_descriptor = "mm"
result_value = 11.5


Turning now to a further compound:
Input: Provide measured zone of inhibition at 50 µg/mL value, entry: NNC(=O)Cn1ncc2cc([N+](=O)[O-])ccc21
Output: 6

* * *

- Test system: Aspergillus flavus
- Assay Text: Antifungal activity against Aspergillus flavus
- Format: functional
Quantity Kind: MIC (µg/mL)

Take a look at these entries with their results.
[[record]]
molecule = "O=C(Cn1ncc2cc([N+](=O)[O-])ccc21)NN1C(=O)CSC1c1cccc(Br)c1 (configuration not stated)"
unit_descriptor = "µg/mL"
result_value = 17

[[record]]
molecule = "O=C(Cn1ncc2cc([N+](=O)[O-])ccc21)NN1C(=O)CSC1c1ccccc1Cl (configuration not stated)"
unit_descriptor = "µg/mL"
result_value = 14

[[record]]
molecule = "COc1ccc(C2SCC(=O)N2NC(=O)Cn2ncc3cc([N+](=O)[O-])ccc32)cc1 (configuration not stated)"
unit_descriptor = "µg/mL"
result_value = 19

[[record]]
molecule = "COC1=CC(=O)C[C@@H](C)[C@]12Oc1c(Cl)c(OC)cc(OC)c1C2=O"
unit_descriptor = "µg/mL"
result_value = 9

[[record]]
molecule = "O=C(Cn1ncc2cc([N+](=O)[O-])ccc21)N/N=C/c1ccccc1Cl"
unit_descriptor = "µg/mL"
result_value = 17

[[record]]
molecule = "COc1ccccc1/C=N/NC(=O)Cn1ncc2cc([N+](=O)[O-])ccc21"
unit_descriptor = "µg/mL"
result_value = 23


A = O=C(Cn1ncc2cc([N+](=O)[O-])ccc21)NN1C(=O)CSC1c1ccccc1Br (configuration not stated)
B = CN(C)c1ccc(/C=N/NC(=O)Cn2ncc3cc([N+](=O)[O-])ccc32)cc1
C = O=C(Cn1ncc2cc([N+](=O)[O-])ccc21)NN1C(=O)CSC1c1cccc([N+](=O)[O-])c1 (configuration not stated)
Input: Given 3 molecules, produce a descending ranking by MIC. Give the labels in the order specified.
Output: B, A, C

1 = O=C(Cn1ncc2cc([N+](=O)[O-])ccc21)N/N=C/c1ccccc1Br
2 = O=C(Cn1ncc2cc([N+](=O)[O-])ccc21)NN1C(=O)CSC1c1ccccc1[N+](=O)[O-] (configuration not stated)
Input: Hi, I'm comparing 1 with 2 and wondering which one has the bigger number for MIC. Any idea? Record your answer as the label of the chosen record.
Output: 1

1 = O=C(Cn1ncc2cc([N+](=O)[O-])ccc21)N/N=C/c1ccccc1O
2 = O=C(Cn1ncc2cc([N+](=O)[O-])ccc21)N/N=C/c1cccc([N+](=O)[O-])c1
Input: // pick larger MIC from pair: 1 vs 2 Output the label that corresponds to your choice.
Output: 1

* * *

- System: Penicillium citrinum
- Assay Text: Antifungal activity against Penicillium citrinum at 50 ug/mL
- Type: functional
- Applied Conditions: read-out: IZ
// reported zone of inhibition at 50 µg/mL for each item listed
Supply the numeric figure in mm, leaving out any unit text.

// solved cases for zone of inhibition at 50 µg/mL follow
[[record]]
compound = "O=C(Cn1ncc2cc([N+](=O)[O-])ccc21)NN1C(=O)CSC1c1ccccc1Cl (stereo not given)"
unit_descriptor = "mm"
result_value = 19.4

[[record]]
compound = "O=C(Cn1ncc2cc([N+](=O)[O-])ccc21)N/N=C/c1ccc(Cl)cc1"
unit_descriptor = "mm"
result_value = 16.8

[[record]]
compound = "O=C(Cn1ncc2cc([N+](=O)[O-])ccc21)NN1C(=O)CSC1c1ccccc1[N+](=O)[O-] (stereo not given)"
unit_descriptor = "mm"
result_value = 21.4

[[record]]
compound = "Cc1ccc(C2SCC(=O)N2NC(=O)Cn2ncc3cc([N+](=O)[O-])ccc32)cc1 (stereo not given)"
unit_descriptor = "mm"
result_value = 10


Input: Give the value of zone of inhibition at 50 µg/mL reported for the following: COc1ccccc1/C=N/NC(=O)Cn1ncc2cc([N+](=O)[O-])ccc21
Output: 9.1

* * *

- System: Fusarium oxysporum
- Assay Text: Antifungal activity against Fusarium oxysporum at 100 ug/mL
- Type: functional
- Applied Conditions: read-out: IZ
The following compounds are listed with their measured zone of inhibition at 100 µg/mL values.
Write the value in mm as a bare number.

Some solved cases for reference:
[[record]]
compound = "COc1ccccc1/C=N/NC(=O)Cn1ncc2cc([N+](=O)[O-])ccc21"
result_value = 15.2

[[record]]
compound = "Cc1ccc(/C=N/NC(=O)Cn2ncc3cc([N+](=O)[O-])ccc32)cc1"
result_value = 12.6


Next up:
Input: Entry O=C(Cn1ncc2cc([N+](=O)[O-])ccc21)NN1C(=O)CSC1c1ccccc1O (centres undefined) needs its zone of inhibition at 100 µg/mL filled in; supply it.
Output: 21.4

* * *

Quick reference: zone of inhibition at 50 µg/mL of the listed items.
- System: Aspergillus flavus
- Assay Text: Antifungal activity against Aspergillus flavus at 50 ug/mL
- Format: functional
- Applied Conditions: read-out: IZ
Give just the numeric value; mm need not be written.

Input: Let me know recorded zone of inhibition at 50 µg/mL for O=C(Cn1ncc2cc([N+](=O)[O-])ccc21)N/N=C/c1ccccc1O , thanks.
Output: 14.9

* * *

- Test system: Escherichia coli
- Assay Text: Antibacterial activity against Escherichia coli
- Format: functional
Quantity Kind: MIC (µg/mL)

Consider the reported MIC for these molecules:
[[record]]
molecule = "O=C(Cn1ncc2cc([N+](=O)[O-])ccc21)NN1C(=O)CSC1c1ccccc1[N+](=O)[O-] (centres undefined)"
quantity_kind = "MIC"
result_value = 11

[[record]]
molecule = "COc1ccccc1C1SCC(=O)N1NC(=O)Cn1ncc2cc([N+](=O)[O-])ccc21 (centres undefined)"
quantity_kind = "MIC"
result_value = 20


A = O=C(Cn1ncc2cc([N+](=O)[O-])ccc21)N/N=C/c1cccc([N+](=O)[O-])c1
B = CCOC(=O)Cn1ncc2cc([N+](=O)[O-])ccc21
Input: Between the two listed entries A and B , which has its MIC at the higher number? In your reply, give the label of the chosen option.
Output: B

* * *

- Test system: Aspergillus flavus
- Assay Text: Antifungal activity against Aspergillus flavus
- Type: functional
Quantity Kind: MIC (µg/mL)

Illustrative cases are given below, each with its answer.
[[record]]
compound = "O=C(Cn1ncc2cc([N+](=O)[O-])ccc21)NN1C(=O)CSC1c1ccccc1O (stereo not given)"
measured_on = "Aspergillus flavus"
quantity_kind = "MIC"
result_value = 18

[[record]]
compound = "CCOC(=O)Cn1ncc2cc([N+](=O)[O-])ccc21"
measured_on = "Aspergillus flavus"
quantity_kind = "MIC"
result_value = 34

[[record]]
compound = "O=C(Cn1ncc2cc([N+](=O)[O-])ccc21)NN1C(=O)CSC1c1ccccc1 (stereo not given)"
measured_on = "Aspergillus flavus"
quantity_kind = "MIC"
result_value = 19

[[record]]
compound = "O=C(Cn1ncc2cc([N+](=O)[O-])ccc21)N/N=C/c1ccc(Cl)cc1"
measured_on = "Aspergillus flavus"
quantity_kind = "MIC"
result_value = 17

[[record]]
compound = "Cc1ccc(C2SCC(=O)N2NC(=O)Cn2ncc3cc([N+](=O)[O-])ccc32)cc1 (stereo not given)"
measured_on = "Aspergillus flavus"
quantity_kind = "MIC"
result_value = 23


P = Cc1ccc(/C=N/NC(=O)Cn2ncc3cc([N+](=O)[O-])ccc32)cc1
Q = O=C(Cn1ncc2cc([N+](=O)[O-])ccc21)NN1C(=O)CSC1c1ccc(Cl)cc1 (stereo not given)
Input: Could you point out whether the larger MIC belongs to P or to Q ? Answer format: the label of the selected item.
Output: P

a = NNC(=O)Cn1ncc2cc([N+](=O)[O-])ccc21
b = COc1ccccc1C1SCC(=O)N1NC(=O)Cn1ncc2cc([N+](=O)[O-])ccc21 (stereo not given)
Input: Kindly identify the item with the lower MIC figure among these two: a and b Pick one; state its label.
Output: b

// provenance: ChEMBL document CHEMBL1240428
